Experiment: xn = mol fraction of the nth substance listed
Conditions: 298.15 K; 101.33 kPa; x1 = 0.398
Could you please report measured viscosity for the items listed next?
Give bare numbers, in mPa·s.

Reference set (4 entries):
compound	viscosity [mPa·s]
CC(Cl)(Cl)Cl + CCCOCCC	0.5036
CC(Cl)(Cl)Cl + COC(C)=O	0.4763
CC(Cl)(Cl)Cl + CC1CCCO1	0.5917
CC(Cl)(Cl)Cl + CCC(C)=O	0.5001

Now consider a different compound.
Task: Fill blank: measured viscosity of the compound CC(Cl)(Cl)Cl + CCOC(C)=O is ____.
Output: 0.5244

* * *

Conditions: 313.15 K; 101 kPa
value_type: viscosity (mPa·s)
One number for each entry, in mPa·s.

compound	value_type	quantity_unit	assay_result
COC(=O)c1ccccc1C(=O)OC	viscosity	mPa·s	7.558
CCCC[N+](CCCC)(CCCC)CCCC.[OH-]	viscosity	mPa·s	6.13
CCCCCCCCn1cc[n+](C)c1.[Cl][Fe-]([Cl])([Cl])[Cl]	viscosity	mPa·s	68.3

Switching to the query record.
Task: Give its viscosity value. Item: CCCCCBr
Output: 0.637

* * *

Test: xn = mol fraction of the nth substance listed
Conditions: 298.15 K; 101.33 kPa; x1 = 0.8
For each record, write down the corresponding viscosity.
Numbers only, in mPa·s.

Guide cases for viscosity, answers given:
molecule	assay_result
CC(Cl)(Cl)Cl + CC1CCCO1	0.7209
CC(Cl)(Cl)Cl + CCC(C)=O	0.669
CC(Cl)(Cl)Cl + CCCOCCC	0.6632

// for each molecule in input: emit viscosity
1. CC(Cl)(Cl)Cl + CCCCCCO
2. CC(Cl)(Cl)Cl + C1COCCO1
3. CC(Cl)(Cl)Cl + O=C1CCCCC1

Output:
1.002
0.8635
0.9504

* * *

Can you tell me log10(viscosity) for the items I'm about to list?
Experiment: xn = mol fraction of the nth substance listed
Details: 298.15 K; 101.33 kPa; x1 = 0.7
Units before log transform: mPa·s; reported quantity: viscosity; transform: log10.

Example molecules with recorded log10(viscosity):
molecule	log10(viscosity)
CC(Cl)(Cl)Cl + CC1CCCO1	-0.16
CC(Cl)(Cl)Cl + COCC(C)O	-0.06
Cc1ccc(O)cc1C + CC12CCC(CC1=O)C2(C)C	1.28

Give log10(viscosity) for each of the items listed below.
1. CC(Cl)(Cl)Cl + C[N+](=O)[O-]
2. CC(Cl)(Cl)Cl + O=C1CCCCC1
3. CC(Cl)(Cl)Cl + CCCOCCC
4. CC(Cl)(Cl)Cl + C1COCCO1
5. CC(Cl)(Cl)Cl + CCC(C)=O

Output:
1. -0.16
2. 0.02
3. -0.21
4. -0.05
5. -0.21

* * *

Settings: 308.15 K; 101 kPa
The threshold is inclusive: viscosity of exactly 9 mPa·s counts as Satisfied; values below receive Not satisfied.

Solved cases (2 shown):
compound	class_assignment
CCCCCBr	Not satisfied
CCCC[N+](CCCC)(CCCC)CCCC.[OH-]	Not satisfied

Task: # bool: viscosity of O=CO >= 9 mPa·s
Output: Not satisfied

Task: Another compound: CCCCCCCCn1cc[n+](C)c1.[Cl][Fe-]([Cl])([Cl])[Cl]
Output: Satisfied

From: the CheMixHub viscosity set
